assay: In vitro stability in rat plasma; format: in vitro ADME
Assay Endpoint: remaining at 4 h, 5 μM (%)
Report only the number, with the unit % understood.

Prompt: # get_value(readout='remaining at 4 h, 5 μM', item= CCCCCCCCCCCCC(=O)N[C@@H](CCC(=O)NCCOCCOCC(=O)NCCOCCOCC(=O)N[C@@H](CCC(N)=O)C(=O)N[C@@H](CCCNC(=N)N)C(=O)N1CCC[C@H]1C(=O)N(C)[C@@H](CCCNC(=N)N)C(=O)N[C@@H](CC(C)C)C(=O)N[C@@H](CO)C(=O)N[C@H](CN[C@@H](CCCCN)C(=O)NCC(=O)N1CCC[C@H]1C(=O)N[C@@H](CCCC)C(=O)N1CCC[C@H]1C(=O)N[C@@H](Cc1ccc(Cl)cc1)C(=O)O)Cc1c[nH]cn1)C(=O)O )
Completion: 36

----------
Listing: remaining at 4 h, 5 μM of selected compounds
experiment: In vitro stability in rat kidney homogenate; type: in vitro ADME; details: rat, tissue homogenate
Starred links: 1 amine or outer side, 2 acyl side, 3 side chain; linkers in the order of their positions; H or OH if unused. Non-standard residues stand in square brackets, D forms with d. Residues, ends and D or L forms follow the SMILES beside them. *: point of attachment. Oic = O=C(O)[C@@H]1C[C@@H]2CCCC[C@@H]2N1; Phe(4-Cl) = N[C@@H](Cc1ccc(Cl)cc1)C(=O)O; γGlu = O=C(O)[C@H](CCC(=O)[*:2])N[*:1]; NMeR = CN[C@@H](CCCNC(=N)N)C(=O)O; Tridecanoyl = CCCCCCCCCCCCC(=O)*; hArg = N=C(N)NCCCC[C@H](N)C(=O)O; Cha = N[C@@H](CC1CCCCC1)C(=O)O; Nle = CCCC[C@H](N)C(=O)O; AEEA = NCCOCCOCC(=O)O

Some compounds with recorded remaining at 4 h, 5 μM:
[[record]]
compound = "CCCC[C@H](NC(=O)[C@@H]1C[C@@H]2CCCC[C@@H]2N1C(=O)CNC(=O)[C@H](CCCCN)NC(=O)[C@H](Cc1c[nH]cn1)NC(=O)[C@H](CO)NC(=O)[C@H](CC1CCCCC1)NC(=O)[C@H](CCCNC(=N)N)N(C)C(=O)[C@@H]1CCCN1C(=O)[C@H](CCCCNC(=N)N)NC(=O)[C@H](CCC(N)=O)NC(C)=O)C(=O)N1CCC[C@H]1C(=O)N[C@@H](Cc1ccc(Cl)cc1)C(=O)O [compound 61] (Ac-Q[hArg]P[NMeR][Cha]SHKG[Oic][Nle]P[Phe(4-Cl)]-OH)"
assay_endpoint = "remaining at 4 h, 5 μM"
test_result = "7.58%"

[[record]]
compound = "CCCC[C@H](NC(=O)[C@@H]1CCCN1C(=O)CNC(=O)[C@H](CCCCN)NC(=O)[C@H](Cc1c[nH]cn1)NC(=O)[C@H](CO)NC(=O)[C@](C)(CC(C)C)NC(=O)[C@H](CCCCNC(=N)N)NC(=O)[C@@H]1CCCN1C(=O)[C@@H](CCCNC(=N)N)NC(=O)[C@H](CCC(N)=O)NC(=O)COCCOCCNC(=O)COCCOCCNC(=O)CC[C@H](NC(=O)CCCCC(=O)O)C(=O)O)C(=O)N1CCC[C@H]1C(=O)N[C@@H](Cc1ccc(Cl)cc1)C(=O)O [compound 515]"
assay_endpoint = "remaining at 4 h, 5 μM"
test_result = "6%"

[[record]]
compound = "CCCCCCCCCCCCC(=O)N[C@@H](CCC(=O)NCCOCCOCC(=O)NCCOCCOCC(=O)N[C@@H](CCC(N)=O)C(=O)N[C@@H](CCCNC(=N)N)C(=O)N1CCC[C@H]1C(=O)N(C)[C@@H](CCCNC(=N)N)C(=O)N[C@@](C)(CC(C)C)C(=O)N[C@@H](CO)C(=O)N[C@@H](Cc1c[nH]cn1)C(=O)N[C@@H](CCCCN)C(=O)NCC(=O)N1CCC[C@@]1(C)C(=O)N[C@@H](CCCC)C(=O)N1CCC[C@H]1C(=O)N[C@@H](Cc1ccc(Cl)cc1)C(=O)O)C(=O)O [compound 387]"
assay_endpoint = "remaining at 4 h, 5 μM"
test_result = "1%"

[[record]]
compound = "CCCCCCCCCCCCCCCCC(=O)N[C@@H](CCC(=O)NCCOCCOCC(=O)NCCOCCOCC(=O)N[C@@H](CCC(N)=O)C(=O)N[C@@H](CCCNC(=N)N)C(=O)N1CCC[C@H]1C(=O)N(C)[C@@H](CCCNC(=N)N)C(=O)N[C@@H](CC(C)C)C(=O)N[C@@H](CO)C(=O)N[C@@H](Cc1c[nH]cn1)C(=O)N[C@@H](CCCCN)C(=O)NCC(=O)N1CCC[C@H]1C(=O)N[C@@H](CCCC)C(=O)N1CCC[C@H]1C(=O)N[C@@H](Cc1ccc(Cl)cc1)C(=O)O)C(=O)O [compound 496]"
assay_endpoint = "remaining at 4 h, 5 μM"
test_result = "< 1%"


Kindly consider the entry below.
Prompt: # get_value(readout='remaining at 4 h, 5 μM', item= CCCCCCCCCCCCC(=O)N[C@@H](CCC(=O)NCCOCCOCC(=O)NCCOCCOCC(=O)N[C@@H](CCC(N)=O)C(=O)N[C@@H](CCCNC(=N)N)C(=O)N1CCC[C@H]1C(=O)N[C@@H](CCC(=O)O)C(=O)N[C@@H](CC(C)C)C(=O)N[C@@H](CO)C(=O)N[C@@H](Cc1c[nH]cn1)C(=O)N[C@@H](CCCCN)C(=O)NCC(=O)N1CCC[C@H]1C(=O)N[C@@H](CCCC)C(=O)N1CCC[C@H]1C(=O)N[C@@H](Cc1ccc(Cl)cc1)C(=O)O)C(=O)O [compound 477] ({Tridecanoyl-γGlu-AEEA-AEEA}-QRPELSHKGP[Nle]P[Phe(4-Cl)]-OH) )
Completion: 2%

----------
Listing: pEC50 of selected compounds
Target: rat APJ receptor (Rattus norvegicus)
Construct: expressed in transfected cells
Sequence (Q9JHG3 1-377): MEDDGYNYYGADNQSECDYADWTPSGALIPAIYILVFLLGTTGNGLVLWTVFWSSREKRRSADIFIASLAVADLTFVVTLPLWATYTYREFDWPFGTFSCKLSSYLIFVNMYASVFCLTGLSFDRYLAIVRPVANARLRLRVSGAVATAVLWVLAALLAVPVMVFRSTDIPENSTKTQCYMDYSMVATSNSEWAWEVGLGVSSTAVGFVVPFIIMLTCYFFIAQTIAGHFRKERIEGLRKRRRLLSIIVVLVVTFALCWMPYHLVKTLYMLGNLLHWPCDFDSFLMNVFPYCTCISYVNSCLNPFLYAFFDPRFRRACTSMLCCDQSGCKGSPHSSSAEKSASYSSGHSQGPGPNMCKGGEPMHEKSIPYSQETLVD
Assay: [35S] GTPγS assay, rat APJ receptor
Format: biochemical
Details: rat APJ receptor, read-out: EC50 Rat APJ Receptor
Starred links: 1 amine or outer side, 2 acyl side, 3 side chain; linkers in the order of their positions; H or OH if unused. Non-standard residues stand in square brackets, D forms with d. Residues, ends and D or L forms follow the SMILES beside them. *: point of attachment. Phe(4-Cl) = N[C@@H](Cc1ccc(Cl)cc1)C(=O)O; γGlu = O=C(O)[C@H](CCC(=O)[*:2])N[*:1]; d(β3hF) = N[C@@H](CC(=O)O)Cc1ccccc1; NMeR = CN[C@@H](CCCNC(=N)N)C(=O)O; Palmitoyl = CCCCCCCCCCCCCCCC(=O)*; Cha = N[C@@H](CC1CCCCC1)C(=O)O; NMeL = CN[C@@H](CC(C)C)C(=O)O; Pip = O=C(O)[C@@H]1CCCCN1; Nle = CCCC[C@H](N)C(=O)O; AEEA = NCCOCCOCC(=O)O
Scale for pEC50: -log10 of concentration given in mol/L; no unit attached.

[[record]]
compound = "CCCC[C@H](NC(=O)[C@@H]1CCCN1C(=O)CNC(=O)[C@H](CCCCN)NC(=O)[C@H](Cc1c[nH]cn1)NC(=O)[C@H](CO)NC(=O)[C@H](CC(C)C)N(C)C(=O)[C@H](CCCNC(=N)N)NC(=O)[C@@H]1CCCN1C(=O)[C@H](CCCNC(=N)N)NC(=O)[C@H](CCC(N)=O)NC(=O)[C@H](CCCNC(=N)N)NC(C)=O)C(=O)N1CCC[C@H]1C(=O)N[C@@H](Cc1ccc(Cl)cc1)C(=O)O [compound 64] (Ac-RQRPR[NMeL]SHKGP[Nle]P[Phe(4-Cl)]-OH)"
assay_endpoint = "pEC50"
test_result = 9.39

[[record]]
compound = "CCCCCC(=O)N[C@@H](CCC(=O)NCCOCCOCC(=O)NCCOCCOCC(=O)N[C@@H](CCC(N)=O)C(=O)N[C@@H](CCCNC(=N)N)C(=O)N1CCC[C@H]1C(=O)N(C)[C@@H](CCCNC(=N)N)C(=O)N[C@@H](CC(C)C)C(=O)N[C@@H](CO)C(=O)N[C@@H](Cc1c[nH]cn1)C(=O)N[C@@H](CCCCN)C(=O)NCC(=O)N1CCC[C@H]1C(=O)N[C@@H](CCCC)C(=O)N1CCC[C@H]1C(=O)N[C@@H](Cc1ccc(Cl)cc1)C(=O)O)C(=O)O [compound 492]"
assay_endpoint = "pEC50"
test_result = 9.83


Prompt: # get_value(readout='pEC50', item= CCCC[C@H](NC(=O)[C@@H]1CCCN1C(=O)CNC(=O)[C@H](CCCCN)NC(=O)[C@H](Cc1c[nH]cn1)NC(=O)[C@H](CO)NC(=O)[C@](C)(CC(C)C)NC(=O)[C@H](CCCCNC(=N)N)NC(=O)[C@@H]1CCCN1C(=O)[C@@H](CCCNC(=N)N)NC(=O)[C@H](CCC(N)=O)NC(C)=O)C(=O)N1CCC[C@H]1C(=O)N[C@@H](Cc1ccc(Cl)cc1)C(=O)O [compound 70] )
Completion: 8.01

Prompt: # get_value(readout='pEC50', item= CCCCCCCCCCCCCCCC(=O)N[C@@H](CCC(=O)NCCOCCOCC(=O)NCCOCCOCC(=O)N[C@H](CCC(N)=O)C(=O)N[C@@H](CCCNC(=N)N)C(=O)N1CCC[C@H]1C(=O)N(C)[C@@H](CCCNC(=N)N)C(=O)N[C@@H](CC1CCCCC1)C(=O)N[C@@H](CO)C(=O)N[C@@H](Cc1c[nH]cn1)C(=O)N[C@@H](CCCCN)C(=O)NCC(=O)N1CCCC[C@H]1C(=O)N[C@@H](CCCC)C(=O)N[C@@H](CC(=O)O)Cc1ccccc1)C(=O)O [compound 574] ({Palmitoyl-γGlu-AEEA-AEEA}-[dQ]RP[NMeR][Cha]SHKG[Pip][Nle][d(β3hF)]-OH) )
Completion: 8.55

Prompt: # get_value(readout='pEC50', item= CCCC[C@H](NC(=O)[C@@H]1CCCN1C(=O)CNC(=O)[C@H](CCCCN)NC(=O)[C@H](Cc1c[nH]cn1)NC(=O)[C@H](CO)NC(=O)[C@H](CC(C)C)NC(=O)[C@H](CCCNC(=N)N)N(C)C(=O)[C@@H]1CCCN1C(=O)[C@H](CCCNC(=N)N)NC(=O)[C@H](CCC(N)=O)NC(C)=O)C(=O)N1CCC[C@H]1C(=O)N[C@@H](Cc1ccc(Cl)cc1)C(=O)O [compound 68] )
Completion: 9.42
